Source of measurements: paper PMC10247784

Target: human TAS2R1 (Homo sapiens, UniProt Q9NYW7)
Construct: expressed in transfected cells; host or cells: HEK293T-Gα16gust44
Sequence (Q9NYW7 whole entry): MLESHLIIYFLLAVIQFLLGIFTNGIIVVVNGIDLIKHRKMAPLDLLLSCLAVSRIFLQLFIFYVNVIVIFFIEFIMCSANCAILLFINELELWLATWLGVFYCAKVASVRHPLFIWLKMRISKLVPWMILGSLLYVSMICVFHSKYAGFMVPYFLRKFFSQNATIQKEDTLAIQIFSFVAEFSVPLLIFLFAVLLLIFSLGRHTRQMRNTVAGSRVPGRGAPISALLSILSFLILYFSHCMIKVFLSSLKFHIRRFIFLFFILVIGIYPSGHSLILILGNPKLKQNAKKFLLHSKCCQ
Assay: Calcium imaging assay (FLIPR), HEK293T-Gα16gust44 cells transfected with human TAS2R1
Format: cell-based
Settings: Time 124.781 s
Experimental: This set of bile acids was chosen because of their commercial availability in high purities, their diversity within the class of bile acids and their previous detection and quantitation in human blood. Stock solutions were prepared in DMSO. […] Measured data were negative control corrected by subtracting the signal of the mock-transfected cells and exported to Microsoft Excel using the FLIPR software ScreenWorks 4.2. […]
RLU reference
readout name: RLU (RLU)

[[record]]
query_smiles = "C[C@H](CCC(=O)O)[C@H]1CC[C@H]2[C@@H]3CC[C@@H]4C[C@H](O)CC[C@]4(C)[C@H]3C[C@H](O)[C@]12C"
system_name = "human TAS2R1 (Homo sapiens, UniProt Q9NYW7)"
readout_name = "RLU"
measure_unit = "RLU"
measured_number = 357.848

[[record]]
query_smiles = "C[C@H](CCC(=O)NCC(=O)O)[C@H]1CC[C@H]2[C@@H]3[C@H](O)C[C@@H]4C[C@H](O)CC[C@]4(C)[C@H]3C[C@H](O)[C@]12C"
system_name = "human TAS2R1 (Homo sapiens, UniProt Q9NYW7)"
readout_name = "RLU"
measure_unit = "RLU"
measured_number = 453.415

[[record]]
query_smiles = "C[C@H](CCC(=O)NCCS(=O)(=O)O)[C@H]1CC[C@H]2[C@@H]3CC[C@@H]4C[C@H](O)CC[C@]4(C)[C@H]3CC[C@]12C"
system_name = "human TAS2R1 (Homo sapiens, UniProt Q9NYW7)"
readout_name = "RLU"
measure_unit = "RLU"
measured_number = 503.611

[[record]]
query_smiles = "C[C@H](CCC(=O)NCCS(=O)(=O)O)[C@H]1CC[C@H]2[C@@H]3[C@H](O)C[C@@H]4C[C@H](O)CC[C@]4(C)[C@H]3C[C@H](O)[C@]12C"
system_name = "human TAS2R1 (Homo sapiens, UniProt Q9NYW7)"
readout_name = "RLU"
measure_unit = "RLU"
measured_number = 292.111


----------
Molecular target: mouse Tas2r108 (Mus musculus, UniProt Q9JKT3)
Construct: expressed in transfected cells; host or cells: HEK293T-Gα16gust44
Sequence (Q9JKT3 1-297): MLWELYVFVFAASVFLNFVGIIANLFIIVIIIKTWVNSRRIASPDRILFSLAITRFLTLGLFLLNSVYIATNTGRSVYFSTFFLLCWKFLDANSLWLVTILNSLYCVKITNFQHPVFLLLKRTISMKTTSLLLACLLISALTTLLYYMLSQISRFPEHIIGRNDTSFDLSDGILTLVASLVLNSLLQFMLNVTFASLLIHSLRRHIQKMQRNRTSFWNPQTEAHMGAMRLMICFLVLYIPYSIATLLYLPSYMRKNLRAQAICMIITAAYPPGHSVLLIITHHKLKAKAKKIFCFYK
Assay: Calcium imaging assay (FLIPR), HEK293T-Gα16gust44 cells transfected with mouse Tas2r108
Format: cell-based
Details: Time 215.562 s
RLU reference
readout name: RLU

[[record]]
query_smiles = "C[C@H](CCC(=O)NCC(=O)O)[C@H]1CC[C@H]2[C@@H]3[C@H](O)C[C@@H]4C[C@H](O)CC[C@]4(C)[C@H]3C[C@H](O)[C@]12C"
readout_name = "RLU"
result = "163.432 RLU"

[[record]]
query_smiles = "C[C@H](CCC(=O)NCCS(=O)(=O)O)[C@H]1CC[C@H]2[C@@H]3[C@H](O)C[C@@H]4C[C@H](O)CC[C@]4(C)[C@H]3C[C@H](O)[C@]12C"
readout_name = "RLU"
result = "226.847 RLU"

[[record]]
query_smiles = "C[C@H](CCC(=O)O)[C@H]1CC[C@H]2[C@@H]3CC[C@@H]4C[C@H](O)CC[C@]4(C)[C@H]3C[C@H](O)[C@]12C"
readout_name = "RLU"
result = "533.378 RLU"

[[record]]
query_smiles = "C[C@H](CCC(=O)O)[C@H]1CC[C@H]2[C@@H]3[C@H](O)C[C@@H]4C[C@H](O)CC[C@]4(C)[C@H]3C[C@H](O)[C@]12C"
readout_name = "RLU"
result = "154.776 RLU"


----------
RLU reference
Target: mouse Tas2r144 (Mus musculus, UniProt Q7TQB8)
Construct: expressed in transfected cells; host or cells: HEK293T-Gα16gust44
Sequence (Q7TQB8 whole entry): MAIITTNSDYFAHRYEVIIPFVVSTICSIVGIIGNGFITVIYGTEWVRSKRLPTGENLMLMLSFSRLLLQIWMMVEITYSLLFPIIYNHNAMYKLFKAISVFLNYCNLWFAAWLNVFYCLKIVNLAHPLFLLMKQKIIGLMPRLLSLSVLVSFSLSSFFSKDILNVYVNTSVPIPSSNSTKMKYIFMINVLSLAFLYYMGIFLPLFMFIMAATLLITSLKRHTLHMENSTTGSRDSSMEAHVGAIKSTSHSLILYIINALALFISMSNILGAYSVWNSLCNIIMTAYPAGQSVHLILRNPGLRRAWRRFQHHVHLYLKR
Assay: Calcium imaging assay (FLIPR), HEK293T-Gα16gust44 cells transfected with mouse Tas2r144
Assay type: cell-based
Settings: Time 22.781 s
readout name: RLU

[[record]]
query_smiles = "C[C@H](CCC(=O)O)[C@H]1CC[C@H]2[C@@H]3[C@H](O)C[C@@H]4C[C@H](O)CC[C@]4(C)[C@H]3C[C@H](O)[C@]12C"
result = "165.689 RLU"

[[record]]
query_smiles = "C[C@H](CCC(=O)NCCS(=O)(=O)O)[C@H]1CC[C@H]2[C@@H]3[C@H](O)C[C@@H]4C[C@H](O)CC[C@]4(C)[C@H]3C[C@H](O)[C@]12C"
result = "10.3855 RLU"

[[record]]
query_smiles = "C[C@H](CCC(=O)NCCS(=O)(=O)O)[C@H]1CC[C@H]2[C@@H]3CC[C@@H]4C[C@H](O)CC[C@]4(C)[C@H]3CC[C@]12C"
result = "-4.009 RLU"

[[record]]
query_smiles = "C[C@H](CCC(=O)NCC(=O)O)[C@H]1CC[C@H]2[C@@H]3[C@H](O)C[C@@H]4C[C@H](O)CC[C@]4(C)[C@H]3C[C@H](O)[C@]12C"
result = "-59.2077 RLU"


----------
RLU, fluorescence trace reference
Biological target: human TAS2R4 (Homo sapiens, UniProt Q9NYW5)
Construct: expressed in transfected cells; host or cells: HEK293T-Gα16gust44
Sequence (Q9NYW5 1-299): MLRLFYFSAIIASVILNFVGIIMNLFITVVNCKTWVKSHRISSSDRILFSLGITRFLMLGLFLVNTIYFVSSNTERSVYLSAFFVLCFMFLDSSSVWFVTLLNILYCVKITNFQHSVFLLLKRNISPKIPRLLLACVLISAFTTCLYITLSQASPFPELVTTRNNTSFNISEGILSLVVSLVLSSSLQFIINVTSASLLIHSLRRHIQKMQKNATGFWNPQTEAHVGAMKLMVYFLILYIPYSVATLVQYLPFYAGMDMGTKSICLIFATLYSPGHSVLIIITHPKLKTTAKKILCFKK
Test: Calcium imaging assay (FLIPR), HEK293T-Gα16gust44 cells transfected with human TAS2R4; further: test concentration or dose not given here
Format: cell-based
Details: Time (s) 96.781 (TCA, TLCA: 96.782)
readout name: RLU, fluorescence trace

[[record]]
compound = "C[C@H](CCC(=O)O)[C@H]1CC[C@H]2[C@@H]3[C@@H](O)C[C@@H]4C[C@H](O)CC[C@]4(C)[C@H]3CC[C@]12C [Ursodeoxycholic Acid, ursodeoxycholic acid]"
result = "305.557 RLU"

[[record]]
compound = "C[C@H](CCC(=O)NCC(=O)O)[C@H]1CC[C@H]2[C@@H]3[C@H](O)C[C@@H]4C[C@H](O)CC[C@]4(C)[C@H]3C[C@H](O)[C@]12C [Glycocholic Acid, glycocholic acid]"
result = "696.734 RLU"

[[record]]
compound = "C[C@H](CCC(=O)NCCS(=O)(=O)O)[C@H]1CC[C@H]2[C@@H]3[C@H](O)C[C@@H]4C[C@H](O)CC[C@]4(C)[C@H]3C[C@H](O)[C@]12C [Taurocholic Acid, taurocholic acid]"
result = "673.234 RLU"


----------
Molecular target: human TAS2R1 (Homo sapiens, UniProt Q9NYW7)
Construct: expressed in transfected cells; host or cells: HEK293T-Gα16gust44
Assay: Calcium imaging assay (FLIPR), HEK293T-Gα16gust44 cells transfected with human TAS2R1
Type: cell-based
Settings: Time 20.796 s
readout name: RLU (RLU)

[[record]]
query_smiles = "C[C@H](CCC(=O)O)[C@H]1CC[C@H]2[C@@H]3[C@H](O)C[C@@H]4C[C@H](O)CC[C@]4(C)[C@H]3C[C@H](O)[C@]12C"
measure_unit = "RLU"
measured_number = -32.113

[[record]]
query_smiles = "C[C@H](CCC(=O)O)[C@H]1CC[C@H]2[C@@H]3[C@@H](O)C[C@@H]4C[C@H](O)CC[C@]4(C)[C@H]3CC[C@]12C"
measure_unit = "RLU"
measured_number = -5.4345

[[record]]
query_smiles = "C[C@H](CCC(=O)O)[C@H]1CC[C@H]2[C@@H]3CC[C@@H]4C[C@H](O)CC[C@]4(C)[C@H]3CC[C@]12C"
measure_unit = "RLU"
measured_number = 69.0707

[[record]]
query_smiles = "C[C@H](CCC(=O)O)[C@H]1CC[C@H]2[C@@H]3[C@H](O)C[C@@H]4C[C@H](O)CC[C@]4(C)[C@H]3CC[C@]12C"
measure_unit = "RLU"
measured_number = 34.972

